Target: ABL2 (human) (UniProt P42684)
Sequence (P42684 whole entry, looked up): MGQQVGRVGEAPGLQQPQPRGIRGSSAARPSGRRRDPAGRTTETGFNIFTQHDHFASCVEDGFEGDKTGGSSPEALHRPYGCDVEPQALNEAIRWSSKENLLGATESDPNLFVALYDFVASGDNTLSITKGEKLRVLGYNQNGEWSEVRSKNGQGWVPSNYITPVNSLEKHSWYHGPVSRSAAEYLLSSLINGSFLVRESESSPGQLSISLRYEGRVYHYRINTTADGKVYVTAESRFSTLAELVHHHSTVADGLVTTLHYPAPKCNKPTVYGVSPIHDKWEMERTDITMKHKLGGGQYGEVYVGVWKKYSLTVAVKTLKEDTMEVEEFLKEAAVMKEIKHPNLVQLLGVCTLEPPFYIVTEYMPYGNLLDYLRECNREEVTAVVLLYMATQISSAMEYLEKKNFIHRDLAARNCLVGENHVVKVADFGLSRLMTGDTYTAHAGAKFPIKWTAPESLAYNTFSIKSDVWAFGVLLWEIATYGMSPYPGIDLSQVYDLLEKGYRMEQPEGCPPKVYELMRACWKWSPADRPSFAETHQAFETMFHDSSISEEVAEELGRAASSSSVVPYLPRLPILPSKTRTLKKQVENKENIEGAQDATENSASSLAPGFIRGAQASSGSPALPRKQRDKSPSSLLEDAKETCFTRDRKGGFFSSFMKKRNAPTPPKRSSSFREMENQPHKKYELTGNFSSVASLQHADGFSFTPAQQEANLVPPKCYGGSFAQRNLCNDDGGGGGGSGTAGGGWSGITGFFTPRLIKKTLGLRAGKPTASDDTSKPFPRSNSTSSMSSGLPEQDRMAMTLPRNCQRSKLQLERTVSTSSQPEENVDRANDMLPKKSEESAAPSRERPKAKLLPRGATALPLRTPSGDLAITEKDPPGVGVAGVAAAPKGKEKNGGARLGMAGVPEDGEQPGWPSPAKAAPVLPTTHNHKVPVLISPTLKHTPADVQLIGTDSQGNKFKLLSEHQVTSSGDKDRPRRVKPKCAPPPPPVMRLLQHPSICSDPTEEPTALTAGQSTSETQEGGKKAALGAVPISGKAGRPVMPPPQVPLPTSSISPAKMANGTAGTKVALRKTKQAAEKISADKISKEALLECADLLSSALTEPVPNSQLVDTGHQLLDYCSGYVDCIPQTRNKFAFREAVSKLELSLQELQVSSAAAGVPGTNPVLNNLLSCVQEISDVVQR
Test: radiometric filter-binding kinase assay, Kinase HotSpot
Conditions: compound 0.5 µM; ATP 10 µM
property label: residual activity (%)
The answer is to be given in %; state only the numeric part.

Example cases with answers are listed next.
INSERT INTO results (cpd_smiles, experimental_target, property_label, measured_number) VALUES
  ('Oc1cccc(-c2nc(N3CCOCC3)c3oc4ncccc4c3n2)c1', 'ABL2 (human) (UniProt P42684)', 'residual activity', 94.9),
  ('Cc1ccc(NC2=CC(=O)c3sc(C)nc3C2=O)cc1', 'ABL2 (human) (UniProt P42684)', 'residual activity', 98.3),
  ('CC(=O)c1ccc(N2CCOCC2)cc1O', 'ABL2 (human) (UniProt P42684)', 'residual activity', 104),
  ('CC#CC(=O)Nc1cc2c(Nc3ccc(F)c(Cl)c3)ncnc2cn1', 'ABL2 (human) (UniProt P42684)', 'residual activity', 89.4),
  ('O=C1NC(=O)c2c1c1c3ccccc3n3c1c1c2c2ccccc2n1C1CCC3O1', 'ABL2 (human) (UniProt P42684)', 'residual activity', 68),
  ('N#C/C(=C(/N)Sc1ccc(N)cc1)c1ccccc1C(F)(F)F', 'ABL2 (human) (UniProt P42684)', 'residual activity', 101),
  ('Nc1ncnc2c1c(-c1ccc(Oc3ccccc3)cc1)cn2C1CCCC1', 'ABL2 (human) (UniProt P42684)', 'residual activity', 84.8),
  ('Nc1cccc(-c2cc3c(Oc4cccc(O)c4)ncnc3[nH]2)c1', 'ABL2 (human) (UniProt P42684)', 'residual activity', 1.4),
  ('O=c1cc(N2CCOCC2)oc2c1ccc1ccccc12', 'ABL2 (human) (UniProt P42684)', 'residual activity', 101),
  ('CCC(=O)Nc1ccc2ncnc(Nc3cccc(Br)c3)c2c1', 'ABL2 (human) (UniProt P42684)', 'residual activity', 96.6);

The recorded residual activity for entry COc1cc2ncnc(Nc3cccc(Cl)c3)c2cc1OC equals 52.6

Briefly, residual activity measured for O=S(=O)(c1cccc2cnccc12)N1CCCNCC1 : 87.6

---

Target: PRKG2 (human) (UniProt Q13237)
Sequence (Q13237 whole entry, looked up): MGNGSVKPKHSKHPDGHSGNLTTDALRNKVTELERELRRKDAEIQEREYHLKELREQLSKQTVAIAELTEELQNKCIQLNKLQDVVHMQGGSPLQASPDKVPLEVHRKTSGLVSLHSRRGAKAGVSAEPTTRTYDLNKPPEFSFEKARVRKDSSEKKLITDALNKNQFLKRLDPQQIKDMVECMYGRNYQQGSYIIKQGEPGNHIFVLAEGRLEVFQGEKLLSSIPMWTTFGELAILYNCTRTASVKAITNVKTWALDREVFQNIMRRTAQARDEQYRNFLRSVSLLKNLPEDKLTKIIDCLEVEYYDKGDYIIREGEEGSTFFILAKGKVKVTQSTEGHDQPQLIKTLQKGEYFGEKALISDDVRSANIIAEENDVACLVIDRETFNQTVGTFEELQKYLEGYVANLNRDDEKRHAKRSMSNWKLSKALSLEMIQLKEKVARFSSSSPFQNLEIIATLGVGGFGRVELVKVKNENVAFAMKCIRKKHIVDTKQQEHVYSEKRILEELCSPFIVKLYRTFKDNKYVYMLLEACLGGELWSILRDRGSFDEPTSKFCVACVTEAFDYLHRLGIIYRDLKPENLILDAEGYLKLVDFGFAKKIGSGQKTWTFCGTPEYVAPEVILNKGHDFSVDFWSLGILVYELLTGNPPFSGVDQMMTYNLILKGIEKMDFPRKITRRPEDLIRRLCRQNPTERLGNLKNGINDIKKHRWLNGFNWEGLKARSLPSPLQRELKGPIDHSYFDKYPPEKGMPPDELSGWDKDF
Experiment: radiometric filter-binding kinase assay, Kinase HotSpot
Details: compound 0.5 µM; ATP 10 µM
# residual activity values compiled below
Write it as a number; the unit % goes unstated.

Some entries whose results are on file:
INSERT INTO assay_data (cpd_smiles, measured_number) VALUES
  ('CCN(CC)C(=O)c1ccc(Nc2nc(OCC3CCCCC3)c3nc[nH]c3n2)cc1', 80),
  ('O=C1NC(=O)/C(=C/c2ccc3c(c2)OC(F)(F)O3)S1', 104),
  ('O=C1Nc2ccc(Cl)cc2/C1=C/c1cc(Cl)c(O)c(Cl)c1', 97),
  ('c1ccc(-c2n[nH]c3c2oc2ccccc23)cc1', 109),
  ('CC#CC(=O)Nc1cc2c(Nc3ccc(F)c(Cl)c3)ncnc2cn1', 105);

Sample CNc1cc2c(Nc3cccc(Br)c3)ncnc2cn1 ; residual activity observed: 102

Field residual activity (entry Nc1ncnc2c1c(-c1ccc(Oc3ccccc3)cc1)cn2C1CCCC1 ) reads 114

// residual activity lookup, compound = CCCC(=O)Oc1ccc2[nH]c(C(=O)c3cc4ccccc4[nH]3)cc2c1 , result: 97.6

---

Target: GRK5 (human) (UniProt P34947)
Sequence (P34947 whole entry, looked up): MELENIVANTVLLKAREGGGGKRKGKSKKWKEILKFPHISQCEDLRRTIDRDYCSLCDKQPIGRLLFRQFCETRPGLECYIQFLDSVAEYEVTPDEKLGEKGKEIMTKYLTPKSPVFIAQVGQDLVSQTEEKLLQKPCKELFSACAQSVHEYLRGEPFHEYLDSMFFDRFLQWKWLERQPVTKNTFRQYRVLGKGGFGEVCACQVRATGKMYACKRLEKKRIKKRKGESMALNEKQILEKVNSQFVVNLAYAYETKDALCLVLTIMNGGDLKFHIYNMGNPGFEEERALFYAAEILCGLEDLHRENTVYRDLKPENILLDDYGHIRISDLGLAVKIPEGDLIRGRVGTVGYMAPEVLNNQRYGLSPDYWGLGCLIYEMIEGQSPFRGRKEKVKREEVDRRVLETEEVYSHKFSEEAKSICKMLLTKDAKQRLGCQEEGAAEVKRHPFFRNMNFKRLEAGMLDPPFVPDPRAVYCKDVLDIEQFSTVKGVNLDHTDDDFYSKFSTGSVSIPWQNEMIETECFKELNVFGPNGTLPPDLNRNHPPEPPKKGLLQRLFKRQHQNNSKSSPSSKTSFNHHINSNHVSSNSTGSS
Test: radiometric filter-binding kinase assay, Kinase HotSpot
Conditions: compound 0.5 µM; ATP 10 µM
property label: residual activity (%)
Supply the numeric figure in %, leaving out any unit text.

INSERT INTO assay_data (molecule, property_label, measured_number) VALUES
  ('CCOC(=O)c1c(C)[nH]c(/C=C2\C(=O)Nc3ccccc32)c1C', 'residual activity', 102),
  ('CC[n+]1c(/C=C/N(C)c2ccccc2)n(-c2ccccc2)c2ccc(-c3nc4ccccc4s3)cc21', 'residual activity', 109),
  ('CO[C@H]1CC2CC[C@@H](C)[C@@](O)(O2)C(=O)C(=O)N2CCCC[C@H]2C(=O)OC([C@H](C)C[C@@H]2CC[C@@H](O)[C@H](OC)C2)CC(=O)[C@H](C)/C=C(\C)[C@@H](O)[C@@H](OC)C(=O)[C@H](C)C[C@H](C)/C=C/C=C/C=C/1C (some centres undefined)', 'residual activity', 98.7),
  ('Nc1ccc2ncnc(NCCc3ccc(Oc4ccccc4)cc3)c2c1', 'residual activity', 98),
  ('O=C1NC(=O)/C(=C/c2ccc3c(c2)OC(F)(F)O3)S1', 'residual activity', 105);

Form field residual activity for item Cc1ccc(NC2=CC(=O)c3sc(C)nc3C2=O)cc1 on GRK5 (human) (UniProt P34947): 106

// molecule CNc1cc2c(Nc3cccc(Br)c3)ncnc2cn1 , assay GRK5 (human) (UniProt P34947), residual activity value: 120

Note to self: residual activity of c1ccc(-c2n[nH]c3c2oc2ccccc23)cc1 with GRK5 (human) (UniProt P34947) was 123

Item Cc1ccc(S(=O)(=O)/C=C/C#N)cc1 ; assay system GRK5 (human) (UniProt P34947); residual activity reported as 105

GRK5 (human) (UniProt P34947) data for CCN(CC)CCNC(=O)c1c(C)[nH]c(/C=C2\C(=O)Nc3ccc(Cl)cc32)c1C ; its residual activity: 82.7

---

Target: CSNK1G3 (human) (UniProt Q9Y6M4)
Sequence (Q9Y6M4 whole entry, looked up): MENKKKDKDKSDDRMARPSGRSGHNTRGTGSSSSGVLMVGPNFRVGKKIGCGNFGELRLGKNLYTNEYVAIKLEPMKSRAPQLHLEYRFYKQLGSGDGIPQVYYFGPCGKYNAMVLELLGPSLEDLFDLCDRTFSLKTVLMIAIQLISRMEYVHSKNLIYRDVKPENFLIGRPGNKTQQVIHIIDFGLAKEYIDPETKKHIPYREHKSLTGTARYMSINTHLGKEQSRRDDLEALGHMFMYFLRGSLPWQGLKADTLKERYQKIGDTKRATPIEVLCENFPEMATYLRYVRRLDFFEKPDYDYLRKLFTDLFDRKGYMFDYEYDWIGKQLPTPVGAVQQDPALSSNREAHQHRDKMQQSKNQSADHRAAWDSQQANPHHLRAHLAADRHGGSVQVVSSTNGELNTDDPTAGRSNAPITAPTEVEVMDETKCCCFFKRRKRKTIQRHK
Assay: radiometric filter-binding kinase assay, Kinase HotSpot
Settings: compound 0.5 µM; ATP 10 µM
property label: residual activity (%)
Write the number in % without appending the unit.

Solved cases below.
INSERT INTO assay_data (cpd_smiles, measured_number) VALUES
  ('Oc1cccc(-c2nc(N3CCOCC3)c3oc4ncccc4c3n2)c1', 99.9),
  ('CC(C)N(CCC(=O)c1ccc2ccccc2c1)Cc1ccccc1', 99),
  ('O=C1NC(=O)c2c1c1c3ccccc3n3c1c1c2c2ccccc2n1C1CCC3O1', 108),
  ('Nc1cccc(-c2cc3c(Oc4cccc(O)c4)ncnc3[nH]2)c1', 92.6);

The molecule identified as CCOC(=O)c1c(C)[nH]c(/C=C2\C(=O)Nc3ccccc32)c1C registered its residual activity at 97.9

Field residual activity (entry CCN(CC)C(=O)c1ccc(Nc2nc(OCC3CCCCC3)c3nc[nH]c3n2)cc1 ) reads 61.7

residual activity measured on Nc1ncnc2c1c(-c1ccc(Oc3ccccc3)cc1)cn2C1CCCC1 = 99.5

residual activity recorded for this molecule, CC(=O)c1ccc(N2CCOCC2)cc1O , is 101

Consider N#C/C(=C(/N)Sc1ccc(N)cc1)c1ccccc1C(F)(F)F . Its measured residual activity is 103

---

Target: UniProt Q96GD4
Sequence (Q96GD4 whole entry, looked up): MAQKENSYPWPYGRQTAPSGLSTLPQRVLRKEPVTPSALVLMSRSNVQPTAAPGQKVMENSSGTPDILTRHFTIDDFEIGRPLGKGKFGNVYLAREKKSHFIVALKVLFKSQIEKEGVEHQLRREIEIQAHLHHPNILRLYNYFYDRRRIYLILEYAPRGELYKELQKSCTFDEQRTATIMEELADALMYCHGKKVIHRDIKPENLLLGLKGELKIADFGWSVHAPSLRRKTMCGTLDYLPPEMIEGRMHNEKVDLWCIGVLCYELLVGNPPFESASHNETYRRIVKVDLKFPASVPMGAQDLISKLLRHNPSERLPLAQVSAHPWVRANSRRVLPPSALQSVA
Assay: radiometric filter-binding kinase assay, Kinase HotSpot
Settings: compound 0.5 µM; ATP 10 µM
property label: residual activity (%)
Kindly provide the numeric value in % only, without the unit symbol.

The examples below pair each entry with its known result.
INSERT INTO results (compound, property_label, measured_number) VALUES
  ('COc1ccc2c(c[n+](C)c3c4cc5c(cc4ccc23)OCO5)c1OC', 'residual activity', 99.2),
  ('CCOC(=O)c1c(C)[nH]c(/C=C2\C(=O)Nc3ccccc32)c1C', 'residual activity', 67.3),
  ('Nc1ncnc2c1c(-c1ccc(Oc3ccccc3)cc1)cn2C1CCCC1', 'residual activity', 88.6),
  ('O=C1NC(=O)c2c1c1c3ccccc3n3c1c1c2c2ccccc2n1C1CCC3O1', 'residual activity', 9.52),
  ('O=C1Nc2ccc(Cl)cc2/C1=C/c1cc(Cl)c(O)c(Cl)c1', 'residual activity', 9.19);

Entry O=S(=O)(c1cccc2cnccc12)N1CCCNCC1 — recorded residual activity = 98.8

---

Target: CAMK2B (human)
Assay: radiometric filter-binding kinase assay, Kinase HotSpot
Settings: compound 0.5 µM; ATP 10 µM
property label: residual activity (%)
Kindly provide the numeric value in % only, without the unit symbol.

Worked examples, 4 compounds total:
INSERT INTO results (compound, measured_number) VALUES
  ('CCN(CC)CCNC(=O)c1c(C)[nH]c(/C=C2\C(=O)Nc3ccc(Cl)cc32)c1C', 27.3),
  ('O=C1NC(=O)c2c1c1c3ccccc3n3c1c1c2c2ccccc2n1C1CCC3O1', 9.85),
  ('Cc1ccc(NC2=CC(=O)c3sc(C)nc3C2=O)cc1', 109),
  ('CNc1cc2c(Nc3cccc(Br)c3)ncnc2cn1', 95.8);

The recorded residual activity for CC#CC(=O)Nc1cc2c(Nc3ccc(F)c(Cl)c3)ncnc2cn1 is 99.6

Note to self: residual activity recorded for Oc1cccc(-c2nc(N3CCOCC3)c3oc4ncccc4c3n2)c1 was 98.2

Entry CO[C@H]1CC2CC[C@@H](C)[C@@](O)(O2)C(=O)C(=O)N2CCCC[C@H]2C(=O)OC([C@H](C)C[C@@H]2CC[C@@H](O)[C@H](OC)C2)CC(=O)[C@H](C)/C=C(\C)[C@@H](O)[C@@H](OC)C(=O)[C@H](C)C[C@H](C)/C=C/C=C/C=C/1C (stereo partly specified) ; residual activity = 99.2

According to the records, this compound CCN(CC)C(=O)c1ccc(Nc2nc(OCC3CCCCC3)c3nc[nH]c3n2)cc1 displays residual activity of 97.6

Entry Cc1ccc(Nc2nccc(N(C)c3ccc4c(C)n(C)nc4c3)n2)cc1S(N)(=O)=O — recorded residual activity = 95.5

Values were extracted from the kinase profiling compilation of Christmann-Franck et al. (2016).
